Here the recorded pKi is given for each entry.
- PROTOCOL_TEXT: Inhibition of SARS-CoV 3C-like protease using Dabcyl-KTSAVLQ-SGFRKME-Edans peptide as substrate incubated for 60 mins by FRET assay
When answering, recall that pKi equals minus log10 of the concentration in mol/L, and write that number alone.

Worked cases, answers included:
# SMILES_REPR, pKi
rows = [
    ("COc1cccc2[nH]c(C(=O)N[C@@H](CC(C)C)C(=O)N[C@@H](C[C@@H]3CCNC3=O)C(=O)COC(=O)c3ccncc3)cc12", 9.22),
    ("COc1cccc2[nH]c(C(=O)N[C@@H](CC(C)C)C(=O)N[C@@H](C[C@@H]3CCNC3=O)C(=O)COC(=O)c3c(C)ncnc3C)cc12", 9.03),
]

Consider the record given below.
input: Annotate the compound `COc1cccc2[nH]c(C(=O)N[C@@H](CC(C)C)C(=O)N[C@@H](C[C@@H]3CCNC3=O)C(=O)COC(=O)[C@H]3CCCCN3C)cc12` with its measured pKi.
output: 8.85
